All figures here come from paper PMC9000610.

So I've got a bunch of molecules here, and I need their pIC50 values.
Target: human COX-2 (Homo sapiens)
Sequence (P35354 18-604): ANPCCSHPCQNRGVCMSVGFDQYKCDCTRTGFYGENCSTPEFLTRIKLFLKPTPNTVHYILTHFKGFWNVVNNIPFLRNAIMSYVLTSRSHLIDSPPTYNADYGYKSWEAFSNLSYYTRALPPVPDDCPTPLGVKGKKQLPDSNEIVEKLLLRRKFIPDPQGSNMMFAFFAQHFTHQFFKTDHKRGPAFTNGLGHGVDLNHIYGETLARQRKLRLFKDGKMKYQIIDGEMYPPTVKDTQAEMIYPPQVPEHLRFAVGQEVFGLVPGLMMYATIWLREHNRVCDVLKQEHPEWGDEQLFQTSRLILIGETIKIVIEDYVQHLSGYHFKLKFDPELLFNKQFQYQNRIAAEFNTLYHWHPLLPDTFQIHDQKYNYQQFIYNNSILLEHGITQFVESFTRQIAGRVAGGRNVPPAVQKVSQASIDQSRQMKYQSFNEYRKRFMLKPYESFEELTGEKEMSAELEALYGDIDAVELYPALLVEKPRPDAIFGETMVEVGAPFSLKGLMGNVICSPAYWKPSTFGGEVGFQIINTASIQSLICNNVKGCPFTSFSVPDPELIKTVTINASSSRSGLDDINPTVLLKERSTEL
Scale: negative log10 of molar concentration, which is what pIC50 denotes.

Name the reported pIC50 value associated with the molecule `CC(=O)Oc1cc(C=Cc2ccc(OC(C)=O)cc2OC(C)=O)cc(OC(C)=O)c1`
4.64

Another molecule to check: `CC(=O)Oc1cc(CCc2ccc(OC(C)=O)cc2OC(C)=O)cc(OC(C)=O)c1`
4.72

Another molecule to check: Oc1cc(O)cc(/C=C/c2ccc(O)cc2O)c1 [Compound 1, trans-2,3′,4,5′-tetrahydroxystilbene]
4.84

Another molecule to check: Oc1cc(O)cc(CCc2ccc(O)cc2O)c1 [Compound 4, 2,3′,4,5′-tetrahydroxybibenzyl]
4.94
